IC50 values, listed per item
Target: human V1b receptor (Homo sapiens, UniProt P47901)
Sequence (P47901 whole entry): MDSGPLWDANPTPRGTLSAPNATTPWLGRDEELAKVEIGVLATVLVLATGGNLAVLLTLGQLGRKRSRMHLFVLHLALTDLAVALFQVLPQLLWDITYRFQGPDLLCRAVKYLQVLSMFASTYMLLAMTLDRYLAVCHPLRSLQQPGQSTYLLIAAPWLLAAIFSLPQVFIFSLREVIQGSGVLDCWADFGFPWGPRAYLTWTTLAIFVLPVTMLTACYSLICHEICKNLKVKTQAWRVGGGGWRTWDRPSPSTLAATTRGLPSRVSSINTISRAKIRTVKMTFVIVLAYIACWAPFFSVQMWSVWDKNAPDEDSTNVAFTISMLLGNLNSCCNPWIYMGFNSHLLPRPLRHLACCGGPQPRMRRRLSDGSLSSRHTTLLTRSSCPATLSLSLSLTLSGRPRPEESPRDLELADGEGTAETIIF
Experiment: V1b binding assay (3H-AVP displacement, HEK-293 membranes)
Parameters: expressed in transfected cells; host or cells: HEK-293 (membranes)
// note: answer is a bare numeric in nM

- Compound: "CCN(CC)CCCn1c(=O)n(C2CCN(C(=S)NC(c3ccccc3)c3ccccc3)CC2)c2ccccc21 [Compound 85]"
  IC50 (nM): 230
- Compound: "O=c1n(CCCN2CCCC2)c2ccccc2n1C1CCN(C(=S)NC(c2ccccc2)c2ccccc2)CC1 [Compound 73]"
  IC50 (nM): 300
- Compound: "O=C(NC(c1ccccc1)c1ccccc1)N1CCC(n2c(=O)[nH]c3ccccc32)CC1 [Compound 75]"
  IC50 (nM): 1000
- Compound: "O=c1n(CCCNCC2CCCCC2)c2ccccc2n1C1CCN(C(=S)NC(c2ccccc2)c2ccccc2)CC1 [Compound 88]"
  IC50 (nM): 1000

Prompt: Can you share its IC50? I mean this compound: CCCC1CCN(CCCn2c(=O)n(C3CCN(C(=S)NC(c4ccccc4)c4ccccc4)CC3)c3ccccc32)CC1 [Compound 122]
Response: 250

----------
# inhibition at 0.1 µM values compiled below
Target: human V1a receptor (Homo sapiens, UniProt P37288)
Sequence (P37288 whole entry): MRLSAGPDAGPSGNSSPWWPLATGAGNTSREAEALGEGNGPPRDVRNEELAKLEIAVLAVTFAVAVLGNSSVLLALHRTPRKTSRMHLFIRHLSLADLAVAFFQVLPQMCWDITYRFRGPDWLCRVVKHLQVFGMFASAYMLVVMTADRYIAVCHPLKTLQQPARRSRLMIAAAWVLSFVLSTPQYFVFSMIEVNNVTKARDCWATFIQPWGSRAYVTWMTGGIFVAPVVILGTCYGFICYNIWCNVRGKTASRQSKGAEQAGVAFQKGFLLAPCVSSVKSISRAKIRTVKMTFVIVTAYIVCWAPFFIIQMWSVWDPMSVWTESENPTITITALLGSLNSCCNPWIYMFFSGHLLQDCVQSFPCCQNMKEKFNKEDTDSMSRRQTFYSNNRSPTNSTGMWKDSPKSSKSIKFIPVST
Test: V1a binding assay (3H-AVP displacement, HEK-293 membranes)
Parameters: expressed in transfected cells; host or cells: HEK-293 (membranes)
Conditions: 0.1 μM compound; read-out: V1a % Inh @0.1
Counter-ions that a name gives are not always drawn.
Expressed in %, but write only the number.

Example entries and their recorded answers appear below.
- Molecule: "COc1ccc(C(NC(=S)N2CCC(n3c(=O)[nH]c4ccccc43)CC2)c2ccc(OC)cc2)cc1"
  Tgt: "human V1a receptor (Homo sapiens, UniProt P37288)"
  inhibition at 0.1 µM / %: 15
- Molecule: "NCCCn1c(=O)n(C2CCN(C(=S)NC(c3ccccc3)c3ccccc3)CC2)c2cc(Cl)c(Cl)cc21"
  Tgt: "human V1a receptor (Homo sapiens, UniProt P37288)"
  inhibition at 0.1 µM / %: 57
- Molecule: "CC(C)(C)OC(=O)NCCNC(=O)C(Cc1ccccc1)NC(=S)N1CCC(n2c(=O)[nH]c3ccccc32)CC1 (stereo not shown)"
  Tgt: "human V1a receptor (Homo sapiens, UniProt P37288)"
  inhibition at 0.1 µM / %: 8

Consider now this further molecule.
Prompt: Sample COc1ccc(C(NC(=S)N2CCC(n3c(=O)n(CCCN)c4ccccc43)CC2)c2ccc(OC)cc2)cc1 [Compound 68, Hydrochloride] — what was its inhibition at 0.1 µM?
Response: 46

----------
Target: human V1a receptor (Homo sapiens, UniProt P37288)
Experiment: V1a binding assay (3H-AVP displacement, HEK-293 membranes)
Set-up: expressed in transfected cells; host or cells: HEK-293 (membranes)
Measured Endpoint: pIC50
// scale note: pIC50 = -log10(conc_M); give the bare number

- Compound: "O=c1n(CCCN2CCCCC2)c2ccccc2n1C1CCN(C(=S)NCc2ccccc2-c2ccccc2)CC1 [Compound 169]"
  pIC50: 7.92

Prompt: Which pIC50 is listed for COc1ccccc1NC(=S)N1CCC(n2c(=O)n(CCCN3CCCCC3)c3ccccc32)CC1 [Compound 119] ?
Response: 7.21

Prompt: Would you mind doing O=c1n(CCCN2CCCCC2)c2ccccc2n1C1CCN(C(=S)NCc2ccccc2)CC1 [Compound 105] as well?
Response: 6.73

Prompt: One more compound: CCCc1ccccc1NC(=O)N1CCC(n2c(=O)n(CCCN3CCCCC3)c3ccccc32)CC1 [Compound 117]
Response: 6.48
